Please respond with reported IC50 for every item in the list.
# tgt: rHDAC6 (Homo sapiens)
# Construct: FLAG; made in house
# Sequence (Q9UBN7 whole entry): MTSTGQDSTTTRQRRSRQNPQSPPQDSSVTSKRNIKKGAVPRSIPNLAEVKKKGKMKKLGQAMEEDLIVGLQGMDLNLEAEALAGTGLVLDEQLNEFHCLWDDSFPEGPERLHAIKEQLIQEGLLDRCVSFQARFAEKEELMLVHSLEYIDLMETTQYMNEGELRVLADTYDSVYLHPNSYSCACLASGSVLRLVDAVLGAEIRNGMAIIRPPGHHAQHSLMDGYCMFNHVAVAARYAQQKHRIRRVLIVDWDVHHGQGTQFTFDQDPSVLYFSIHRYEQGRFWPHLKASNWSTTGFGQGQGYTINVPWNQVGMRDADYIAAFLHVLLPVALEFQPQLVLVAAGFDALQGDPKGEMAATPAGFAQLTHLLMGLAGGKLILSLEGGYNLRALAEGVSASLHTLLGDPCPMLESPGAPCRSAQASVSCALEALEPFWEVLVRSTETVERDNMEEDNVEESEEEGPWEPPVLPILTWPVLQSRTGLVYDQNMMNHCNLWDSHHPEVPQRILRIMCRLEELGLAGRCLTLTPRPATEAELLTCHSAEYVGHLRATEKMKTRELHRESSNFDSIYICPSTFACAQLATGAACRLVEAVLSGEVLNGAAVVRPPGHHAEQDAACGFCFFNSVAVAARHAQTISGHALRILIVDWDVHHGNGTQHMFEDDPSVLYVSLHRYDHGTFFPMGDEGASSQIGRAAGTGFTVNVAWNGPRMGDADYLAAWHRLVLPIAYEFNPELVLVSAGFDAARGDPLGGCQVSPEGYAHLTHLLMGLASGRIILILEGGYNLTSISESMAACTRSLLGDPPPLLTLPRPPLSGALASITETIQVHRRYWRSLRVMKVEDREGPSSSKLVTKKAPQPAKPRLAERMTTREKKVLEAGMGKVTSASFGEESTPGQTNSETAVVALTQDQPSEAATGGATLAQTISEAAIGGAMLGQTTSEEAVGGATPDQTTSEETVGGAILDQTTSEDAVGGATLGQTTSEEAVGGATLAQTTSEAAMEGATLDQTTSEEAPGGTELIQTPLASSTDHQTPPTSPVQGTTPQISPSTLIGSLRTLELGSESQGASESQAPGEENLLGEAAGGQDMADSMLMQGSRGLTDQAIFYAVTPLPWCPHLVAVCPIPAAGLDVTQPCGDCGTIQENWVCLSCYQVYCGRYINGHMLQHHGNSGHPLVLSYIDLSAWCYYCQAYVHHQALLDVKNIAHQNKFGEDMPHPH
# method: rHDAC6 enzymatic assay (recombinant FLAG-HDAC6)
# Format: biochemical
# cond: FLAG-HDAC6 from HEK293; 10 μM Ac-NH-GGK(Ac)-AMC, 3 h at 30° C.; read-out: rHDAC6 [pIC50] (converted)
Counter-ions that a name gives are not always drawn.

(Q) # query: IC50 of entry O=C(NO)c1ccc2c(c1)CCN(C(=O)C1CC1)C2
(A) 1 to 100 nM

(Q) # query: IC50 of entry O=C(NO)c1ccc2c(c1)CN(C(=O)Cc1cccnc1)CC2 [Example 19, hydrochloride]
(A) 1 to 100 nM

(Q) # query: IC50 of entry COCCOCC(=O)N1CCc2cc(C(=O)NO)ccc2C1
(A) 100 to 1000 nM

(Q) # query: IC50 of entry O=C(NO)c1ccc2c(c1)CCN(C(=O)C1CCOC1)C2 (centres unmarked)
(A) 100 to 1000 nM

(Q) # query: IC50 of entry Cc1nccn1CC(=O)N1CCc2cc(C(=O)NO)ccc2C1 [Example 10, hydrochloride]
(A) 100 to 1000 nM
